# Tested on: KM-20L2
# EXPERIMENT NOTES: NCI tumour cell line growth inhibition, 48 h
Calls of active or inactive are those of the source. Rule as the data show it: active = GI50 up to about 1.1 µM and inactive = higher.
MEASUREMENT TYPE: GI50

Query: Fill in the blank: the reported GI50 of `O=c1/c(=C/c2ccccc2O)sc2nc3ccccc3n12` is ____.
Reply: 84.1 µM (inactive)

Query: What about `O=C1/C(=C/c2ccccc2)CN(C(=O)CCN2CCOCC2)C/C1=C\c1ccccc1` ?
Reply: 1.92 µM (inactive)

Query: Proceed to `C=C(CN(C)C)C(=O)c1ccccc1[N+](=O)[O-]`
Reply: 23.4 µM (inactive)

Further cases:
Query: Please look up its GI50: COc1nc2c(nc(N)n2C2OCC(O)C(O)C2O)c(=O)n1C (stereo not given)
Reply: > 100 µM (inactive)
